For each entry below, report its IC50 value.
Biological target: HCV-NS5b (Hepatitis C virus genotype 1b, UniProt Q9WMX2)
Construct: (His)6 (C); made in house; host or cells: XL-1 cells (E. coli), IPTG-inducible plasmid
Assay: HCV-NS5b enzyme assay using homopolymer substrate
Type: biochemical
Conditions: homopolymer substrate, [3H]-UTP incorporation, 30° C., 90 minutes; read-out: IC50
Quick note: give the figure in nM, leave out the unit.

Request: IC50, test system HCV-NS5b (Hepatitis C virus genotype 1b, UniProt Q9WMX2), entry O=C(O)c1ccc2c(C3CCCCC3)c3n(c2c1)CCCn1cc(CN(CCO)CCO)c2cccc-3c21 [Compound 363] 124

Request: IC50, test system HCV-NS5b (Hepatitis C virus genotype 1b, UniProt Q9WMX2), entry CN(C)Cc1cc2cccc3c2n1CCCn1c-3c(C2CCCCC2)c2ccc(C(=O)O)cc21 [Compound 411] 277

Request: IC50, test system HCV-NS5b (Hepatitis C virus genotype 1b, UniProt Q9WMX2), entry CCC(C)(C)NCc1cn2c3c(cccc13)-c1c(C3CCCCC3)c3ccc(C(=O)O)cc3n1CCC2 [Compound 393] 138

Request: IC50, test system HCV-NS5b (Hepatitis C virus genotype 1b, UniProt Q9WMX2), entry CCCNCc1cn2c3c(cccc13)-c1c(C3CCCCC3)c3ccc(C(=O)O)cc3n1CCC2 [Compound 366] 121

Request: IC50, test system HCV-NS5b (Hepatitis C virus genotype 1b, UniProt Q9WMX2), entry CCN(CC)CC#Cc1cn2c3c(cccc13)-c1c(C3CCCCC3)c3ccc(C(=O)O)cc3n1CCC2 [Compound 432] 324

Request: IC50, test system HCV-NS5b (Hepatitis C virus genotype 1b, UniProt Q9WMX2), entry CCC(C)NCc1cn2c3c(cccc13)-c1c(C3CCCCC3)c3ccc(C(=O)O)cc3n1CCC2 (stereo not drawn) [Compound 379] 117

Request: IC50, test system HCV-NS5b (Hepatitis C virus genotype 1b, UniProt Q9WMX2), entry CC1CCC(NCc2cn3c4c(cccc24)-c2c(C4CCCCC4)c4ccc(C(=O)O)cc4n2CCC3)CC1 (stereo not drawn) [Compound 364] 277

Request: IC50, test system HCV-NS5b (Hepatitis C virus genotype 1b, UniProt Q9WMX2), entry COCCN(CCOC)Cc1cn2c3c(cccc13)-c1c(C3CCCCC3)c3ccc(C(=O)O)cc3n1CCC2 [Compound 362] 337

Request: IC50, test system HCV-NS5b (Hepatitis C virus genotype 1b, UniProt Q9WMX2), entry O=C(O)c1ccc2c(C3CCCCC3)c3n(c2c1)CCCn1c(C(=O)NCCN2CCCCC2)cc2cccc-3c21 [Compound 404] 257

Request: IC50, test system HCV-NS5b (Hepatitis C virus genotype 1b, UniProt Q9WMX2), entry O=C(O)c1ccc2c(C3CCCCC3)c3n(c2c1)CCCn1c(C(=O)N2CCCCC2)cc2cccc-3c21 [Compound 406] 136

Request: IC50, test system HCV-NS5b (Hepatitis C virus genotype 1b, UniProt Q9WMX2), entry CCN(C)Cc1cn2c3c(cccc13)-c1c(C3CCCCC3)c3ccc(C(=O)O)cc3n1CCC2 [Compound 129] 96

Request: IC50, test system HCV-NS5b (Hepatitis C virus genotype 1b, UniProt Q9WMX2), entry CN1CCN(C(=O)c2c(Cl)c3cccc4c3n2CCCn2c-4c(C3CCCCC3)c3ccc(C(=O)O)cc32)CC1 [Compound 412] 179

Request: IC50, test system HCV-NS5b (Hepatitis C virus genotype 1b, UniProt Q9WMX2), entry O=C(O)c1ccc2c(C3CCCCC3)c3n(c2c1)CCCn1cc(CN2CCCCC2)c2ccnc-3c21 [Compound 464] 960

Request: IC50, test system HCV-NS5b (Hepatitis C virus genotype 1b, UniProt Q9WMX2), entry CS(=O)(=O)NC(=O)c1ccc2c(C3CCCCC3)c3n(c2c1)CCCn1cc(CN2CCCCC2)c2cccc-3c21 [Compound 373] 153

Request: IC50, test system HCV-NS5b (Hepatitis C virus genotype 1b, UniProt Q9WMX2), entry CN1CCN(Cc2cc3cccc4c3n2CCCn2c-4c(C3CCCCC3)c3ccc(C(=O)O)cc32)CC1 [Compound 415] 170

Hey, just so you know, these numbers are from patent US20090197856A1.
